# studyTarget: cGAS (Homo sapiens, UniProt Q8N884)
# Sequence (Q8N884 whole entry): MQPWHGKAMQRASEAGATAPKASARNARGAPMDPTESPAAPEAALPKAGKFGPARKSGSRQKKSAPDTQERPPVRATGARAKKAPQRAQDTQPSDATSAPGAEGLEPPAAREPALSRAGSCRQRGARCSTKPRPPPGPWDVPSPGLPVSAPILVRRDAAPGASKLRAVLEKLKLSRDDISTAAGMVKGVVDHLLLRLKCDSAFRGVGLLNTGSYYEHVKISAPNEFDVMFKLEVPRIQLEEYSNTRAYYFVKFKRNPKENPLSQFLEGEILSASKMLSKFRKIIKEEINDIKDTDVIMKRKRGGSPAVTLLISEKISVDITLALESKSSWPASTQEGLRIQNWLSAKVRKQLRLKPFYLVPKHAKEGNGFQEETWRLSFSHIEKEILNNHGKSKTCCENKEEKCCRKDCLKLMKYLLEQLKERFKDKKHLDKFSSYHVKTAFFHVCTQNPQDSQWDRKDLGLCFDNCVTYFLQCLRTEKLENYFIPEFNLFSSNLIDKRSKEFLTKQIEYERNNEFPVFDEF
# assaySummary: Cellular assay to measure cGAS activity (IFNb AlphaLISA in THP1 cells stimulated by RDG-Adenovirus-GFP)
# Assay type: cell-based
# Design: host or cells: THP1 cells differentiated with PMA and stimulated with RDG-Adenovirus-GFP
# conditionSummary: PMA-differentiated THP1 cells, RDG-Adenovirus-GFP at 1000 MOI; inhibition of IFNb production as marker for cGAS activity
measuredEndpoint: IC50 (nM)

A: Cn1ncc(-c2cc(Cl)c(Cl)c3[nH]c4c(c23)CC(=O)NCC4CCNCC(F)(F)F)n1 (stereo not shown) [Example 112]
B: C[C@H]1C(=O)NCC(C)(C)c2[nH]c3c(Cl)c(Cl)cc(NC(=O)CO)c3c21 (single isomer, unassigned) [Example 133]
Inquiry: Which entry has a larger number for IC50, A or B ? Kindly state the label of the option you pick.
Reply text: A
(A: 2600 nM, B: 820 nM)

a: N#CCOc1cc(Cl)c(Cl)c2c1c1c3n2CCC3CNC(=O)C1 (stereo not shown) [Example 115]
b: C[C@H](O)C(=O)Nc1cc(Cl)c(Cl)c2[nH]c3c(c12)[C@@H](C)C(=O)NCC3 (single isomer, unassigned) [Example 43]
Inquiry: Select the item whose IC50 value is smaller, choosing between a and b . Kindly state the label of the option you pick.
Reply text: b
(b: 498 nM, a: 1950 nM)

----------
# studyTarget: cGAS (Homo sapiens, UniProt Q8N884)
# assaySummary: Cellular assay to measure cGAS activity (IFNb AlphaLISA in THP1 cells stimulated by RDG-Adenovirus-GFP)
# Type: cell-based
# Parameters: host or cells: THP1 cells differentiated with PMA and stimulated with RDG-Adenovirus-GFP
# conditionSummary: PMA-differentiated THP1 cells, RDG-Adenovirus-GFP at 1000 MOI; inhibition of IFNb production as marker for cGAS activity
measuredEndpoint: IC50 (nM)

For orientation, consider the following solved cases.
CN(C)C(=O)CC1CNC(=O)Cc2c1[nH]c1c(Cl)c(Cl)cc(CC#N)c21 (stereo not shown) [Example 117]; 1320
CC(C)(O)C[C@@H]1CNC(=O)Cc2c1[nH]c1c(Cl)c(Cl)cc(CC#N)c21 (single isomer, unassigned) [Example 107]; 649
CC1C(=O)NCCc2[nH]c3c(Cl)c(Cl)cc(-c4cnn(C)n4)c3c21 (stereo not shown) [Example 9]; 2160
C[C@H]1C(=O)NCCc2[nH]c3c(Cl)c(Cl)cc(CC#N)c3c21 (single isomer, unassigned) [Example 90]; 993
COCCNc1cc(Cl)c(Cl)c2[nH]c3c(c12)[C@@H](C)C(=O)NCC3 (single isomer, unassigned) [Example 47]; 596

1: C[C@@H]1CNC(=O)[C@@H](C)c2c1[nH]c1c(Cl)c(Cl)cc(NC(=O)CO)c21 (single isomer, unassigned) [Example 160]
2: CC(O)CC1CNC(=O)Cc2c1[nH]c1c(Cl)c(Cl)cc(CC#N)c21 (stereo not shown) [Example 120]
Inquiry: Which entry has a larger number for IC50, 1 or 2 ? Kindly state the label of the option you pick.
Reply text: 2
(2: 716 nM, 1: 256 nM)

a: C[C@@H]1C(=O)NCCc2c1c1c(NC(=O)CO)cc(Cl)c(Cl)c1n2CC(F)(F)F (single isomer, unassigned) [Example 186]
b: C[C@@H]1C(=O)NCCc2[nH]c3c(Cl)c(Cl)cc(NC(=O)CO)c3c21 (single isomer, unassigned) [Example 12B]
c: C[C@@H]1CNC(=O)[C@@H](C)c2c1[nH]c1c(Cl)c(Cl)cc(NCCO)c21 (single isomer, unassigned) [Example 154]
d: CC(O)CC1CNC(=O)Cc2c1n(C)c1c(Cl)c(Cl)cc(CC#N)c21 (mixture of isomers) [Example 128]
e: COCCOc1cc(Cl)c(Cl)c2[nH]c3c(c12)[C@H](C)C(=O)NCC3 (single isomer, unassigned) [Example 81]
Inquiry: Parameters: sort_field (IC50), sort_dir (desc). Would you mind listing the labels in the order requested?
Reply text: e, a, b, c, d
(e: 7060 nM, a: 4340 nM, b: 1700 nM, c: 394 nM, d: 217 nM)

I: COCC[C@H]1CNC(=O)[C@H](C)c2c1[nH]c1c(Cl)c(Cl)cc(NCCO)c21 (single isomer, unassigned) [Example 171]
II: CC1Cc2[nH]c3c(Cl)c(Cl)cc(NCCO)c3c2CC(=O)N1 (stereo not shown) [Example 165]
Inquiry: Which entry has a larger number for IC50, I or II ? Kindly state the label of the option you pick.
Reply text: II

1: CC1C(=O)NCCc2[nH]c3c(Cl)c(Cl)cc(NC4CCOC4)c3c21 (stereo in doubt) [Example 66]
2: CCCNc1cc(Cl)c(Cl)c2[nH]c3c(c12)C(C)C(=O)NCC3 (stereo not shown) [Example 45]
3: C[C@@H](O)CNc1cc(Cl)c(Cl)c2[nH]c3c(c12)[C@@H](C)C(=O)NCC3 (single isomer, unassigned) [Example 56]
Inquiry: Sort the compounds on IC50; start with the lowest figure. Would you mind listing the labels in the order requested?
Reply text: 2, 1, 3
(2: 2230 nM, 1: 4150 nM, 3: 6230 nM)

I: CC1C(=O)NCCc2[nH]c3c(Cl)c(Cl)cc(CCCO)c3c21 (stereo not shown) [Example 88]
II: C[C@H]1C(=O)NCCc2[nH]c3c(Cl)c(Cl)cc(NCCCO)c3c21 (single isomer, unassigned) [Example 54]
Inquiry: Select the item whose IC50 value is smaller, choosing between I and II . Kindly state the label of the option you pick.
Reply text: I
(I: 3230 nM, II: 5660 nM)
